Experiment: chemical genetic growth profiling, strain panel (AID 1159580);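 note: tested at 20 µM; growth read once vehicle control cultures reached saturation at 30 °C; 1 = growth at the plate median or of vehicle wells; lower values mean less growth of the strain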
Conditions: S. cerevisiae deletion strains, growth OD, locus YHR030C, strain SLT2
Among all 5,500 compounds or so, about 2,000 (36%) were called active. Roughly 18% stayed inconclusive and do not appear here. Cut-off read from the data, not from the text of the source: active = normalized growth mostly below about 0.91 (no sharp cut-off); inconclusive = no clear call, values can overlap the other calls; inactive = mostly above about 0.92. Some of the results follow.
Would you mind answering with one of these outcomes? 1 for active, -1 for inactive

{"compound": "O=C(O)c1cncc(C#Cc2ccccc2)c1", "classification": -1}
{"compound": "O=C(CC1NCCN(Cc2ccccc2)C1=O)Nc1ccc(Cl)cc1 (centres undefined)", "classification": -1}
{"compound": "COc1ccc(C(CC(=O)c2ccccc2)Sc2ccccc2N)cc1OC (centres undefined)", "classification": -1}

INPUT: Status in this test for `COC(=O)CCCCCCCC(=O)Nc1ccc(Cl)cc1` ?
OUTPUT: -1

INPUT: Status in this test for `CSc1c(-c2ccccc2)c(N)nn1S(=O)(=O)c1ccccc1` ?
OUTPUT: -1

INPUT: Status in this test for `COc1ccc(/C=C2\CC/C(=C\c3ccc(OC)c(OC)c3)C2=O)cc1OC` ?
OUTPUT: -1

INPUT: Status in this test for COc1cc2nc(N(C)CCCNC(=O)C3CCCO3)nc(N)c2cc1OC (centres undefined) ?
OUTPUT: -1

INPUT: Status in this test for `Cc1cc(=O)n2[nH]cnc2n1` ?
OUTPUT: -1

INPUT: Status in this test for `N#C/C(=N/Nc1ccc(F)cc1)S(=O)(=O)c1ccc(Cl)cc1` ?
OUTPUT: -1

---

Test: chemical genetic growth profiling, strain panel (AID 1159580);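 note: tested at 20 µM; growth read once vehicle control cultures reached saturation at 30 °C; 1 = growth at the plate median or of vehicle wells; lower values mean less growth of the strain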
Settings: S. cerevisiae deletion strains, growth OD, locus YJR075W, strain HOC1
About 2,000 (36%) of roughly 5,500 compounds were called active. Another 18% or so got no clear call; they are omitted. Cut-off read from the data, not from the text of the source: active = normalized growth mostly below about 0.91 (no sharp cut-off); inconclusive = no clear call, values can overlap the other calls; inactive = mostly above about 0.92. The list shows a part of the results.
Would you mind answering with one of these outcomes? active, inactive

{"molecule": "COc1ccc(C2CNC(=O)C2)cc1OC1CCCC1 (configuration not stated)", "classification": "inactive"}
{"molecule": "OCC(O)CN1CCN(c2ccccc2)CC1 (configuration not stated)", "classification": "inactive"}
{"molecule": "O=c1cccc2ccc(O)c(O)c2c1O", "classification": "active"}
{"molecule": "CN1CC[C@@]2(C)c3cc(O)ccc3N(C)C12 (some centres not stated)", "classification": "inactive"}
{"molecule": "COc1ccc(OC)c(C(O)CNC(=O)CN)c1 (configuration not stated)", "classification": "inactive"}

INPUT: Status in this test for CC(C)(C)NCC(O)COc1cccc2[nH]c(=O)[nH]c12 (configuration not stated) ?
OUTPUT: inactive

INPUT: Status in this test for `COC(=O)c1ccc2c(c1)N(C)S(=O)(=O)CC2=O` ?
OUTPUT: inactive

---

Test: chemical genetic growth profiling, strain panel (AID 1159580);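 note: tested at 20 µM; growth read once vehicle control cultures reached saturation at 30 °C; 1 = growth at the plate median or of vehicle wells; lower values mean less growth of the strain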
Conditions: S. cerevisiae deletion strains, growth OD, locus YLR113W, strain HOG1, hits give low values
Screen size: about 5,500 compounds; about 2,000 (36%) were called active. About 18% were inconclusive and are not listed. The list shows a part of the results.
endpointLabel: normalized growth
Answer with the value's number alone.

For orientation, consider the following solved cases.
{"compound": "CNCCC(Oc1ccc(C(F)(F)F)cc1)c1ccccc1 (configuration not stated)", "endpointLabel": "normalized growth", "obsValue": 1.01}
{"compound": "COC(=O)C[C@H]1C2(C)CC34OC5(C)O[C@@]6([C@H](OC)C(OC(=O)C(C)C)[C@]7(C)C(/C(=C(/OC)C(C)C)C(=O)O[C@H]7c7ccoc7)[C@@]6(O5)[C@H](OC)[C@@]3(OC)C2OC(C)=O)[C@]14C (some centres not stated)", "endpointLabel": "normalized growth", "obsValue": 1.01}
{"compound": "Nc1ncn[nH]1", "endpointLabel": "normalized growth", "obsValue": 0.985}

Okay, next one:
INPUT: Respond only with normalized growth recorded for `Oc1cc(O)c2c(c1)O[C@H](c1cc(O)c(O)c(O)c1)[C@H](O)C2`
OUTPUT: 0.977
